B1: POU domain, class 2, transcription factor 2, residues 200 to 269; numbered along this chain, P09086 (parent)
chain: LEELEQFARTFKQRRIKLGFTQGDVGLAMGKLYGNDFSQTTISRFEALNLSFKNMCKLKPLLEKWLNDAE

- Variants of: B1
- Assay Explanation: abundance fitness (aPCA) (normalised: wild type 0, dead -1); higher = more abundant; growth selection in yeast, the domain comes from the species named
- Cond: Homo sapiens
Assay Readout: abundance fitness
Provide a numeric answer; units are not to be included.

Would you mind telling me what abundance fitness value was observed for G26K ?
-0.113

Recorded abundance fitness of W65M , please.
-0.309

Name the recorded abundance fitness for R44V .
-0.523

Suppose we examine the variant V25C ; what abundance fitness value has been reported?
-0.229

From: the Human Domainome abundance scans (Beltran et al. 2025)
